Ki: recorded values
Molecular target: recombinant human ALK5 (TGF-βR1) protein (Homo sapiens, UniProt P36897)
Sequence (P36897 34-503): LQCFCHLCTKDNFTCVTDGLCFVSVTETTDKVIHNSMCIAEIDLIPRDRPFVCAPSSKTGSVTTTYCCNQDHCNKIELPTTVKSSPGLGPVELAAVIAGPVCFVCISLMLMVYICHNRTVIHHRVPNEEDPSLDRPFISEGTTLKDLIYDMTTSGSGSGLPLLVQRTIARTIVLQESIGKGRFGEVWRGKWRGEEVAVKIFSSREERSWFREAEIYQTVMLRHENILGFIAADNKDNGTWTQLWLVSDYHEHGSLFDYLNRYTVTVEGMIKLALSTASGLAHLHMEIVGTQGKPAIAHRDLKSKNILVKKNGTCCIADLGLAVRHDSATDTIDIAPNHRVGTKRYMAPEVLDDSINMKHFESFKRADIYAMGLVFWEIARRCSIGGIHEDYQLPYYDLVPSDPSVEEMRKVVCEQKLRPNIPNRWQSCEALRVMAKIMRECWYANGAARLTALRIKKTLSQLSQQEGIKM
Assay: Biochemical ALK5 (TGF-βR1) assay to measure pKi (LANCE Ultra ULight kinase assay)
Settings: apparent pKi, converted from pIC50 by Cheng-Prusoff
quantity: Ki

INSERT INTO measurements (compound, measurement) VALUES
  ('Cc1cccc(-c2nccc(Nc3ccnc(Nc4ccc(CN5CCC(C(=O)OC6CNC6)C5)cc4)n3)n2)n1 (stereo not shown)', '0.0398 to 0.316 nM'),
  ('Cc1cccc(-c2nccc(Nc3ccnc(Nc4ccc(C(=O)O[C@@H]5CCCNC5)nc4)n3)n2)n1', '0.0398 to 0.316 nM'),
  ('Cc1cccc(-c2nccc(Nc3ccnc(Nc4cccc(N5CCNCC5)c4)n3)n2)n1', '0.0398 to 0.316 nM'),
  ('Cc1cccc(-c2nccc(Nc3ccnc(Nc4cncc(C(=O)O[C@@H]5CCNC5)c4)n3)n2)n1', '0.398 to 3.16 nM'),
  ('Cc1cccc(-c2nccc(Nc3ccnc(Nc4cc(C(=O)OCC5CNC5)cs4)n3)n2)n1', '0.0398 to 0.316 nM'),
  ('Cc1cccc(-c2nccc(Nc3ccnc(Nc4cccc(NC(=O)C5(O)CCNC5)c4)n3)n2)n1 (stereo not shown)', '0.0398 to 0.316 nM'),
  ('Cc1cccc(-c2nccc(Nc3ccnc(Nc4ccc(NC[C@@H]5CCCN5)cc4)n3)n2)n1', '0.0398 to 0.316 nM'),
  ('Cc1cccc(-c2nccc(Nc3ccnc(Nc4ccc(CN5CCCC(C(=O)NC6CCNC6)C5)cc4)n3)n2)n1 (racemic)', '0.0398 to 0.316 nM'),
  ('CNC1CCN(c2ccc(Nc3nccc(Nc4ccnc(-c5cccc(C)n5)n4)n3)cc2)CC1', '0.0398 to 0.316 nM'),
  ('CNC(=O)Cc1cc(Nc2ccnc(Nc3ccc(N4CCNCC4)cc3)n2)nc(-c2cccc(C)n2)n1', '3.98 to 31.6 nM'),
  ('Cc1cccc(-c2nccc(Nc3ccnc(Nc4ccc(CN5CCN6CCCC6C5)cc4)n3)n2)n1 (stereo not shown)', '0.0398 to 0.316 nM'),
  ('Cc1cccc(-c2nccc(Nc3ccnc(Nc4ccc(NC(=O)C5CCN(C6CCNC6)CC5)cc4)n3)n2)n1 (stereo not shown)', '0.0398 to 0.316 nM'),
  ('Cc1cccc(-c2nc(Nc3ccnc(Nc4ccc(NC(=O)C5CCNCC5)cc4)n3)c3cccn3n2)n1', '0.0398 to 0.316 nM'),
  ('Cc1cccc(-c2nccc(Nc3ccnc(Nc4ncc(N5C[C@@H](C)N[C@@H](C)C5)s4)n3)n2)n1', '3.98 to 31.6 nM'),
  ('Cc1cccc(-c2nccc(Nc3ccnc(Nc4ccc(NC(=O)N5CCNCC5)cc4)n3)n2)n1', '0.0398 to 0.316 nM'),
  ('Cc1cccc(-c2nccc(Nc3ccnc(Nc4ccc(CN5CCOCC5)cc4)n3)n2)n1', '0.0398 to 0.316 nM'),
  ('CC(=O)N1CCN(c2cccc(Nc3nccc(Nc4ccnc(-c5cccc(C)n5)n4)n3)c2)CC1', '0.0398 to 0.316 nM'),
  ('Fc1cc(F)c(-c2nccc(Nc3ccnc(Nc4ccc(N5CCOCC5)cc4)n3)n2)cc1Cl', '3.98 to 31.6 nM'),
  ('Cc1cccc(-c2nccc(Nc3ccnc(Nc4ccc(-c5cnn(CCN)c5)cc4)n3)n2)n1', '0.0398 to 0.316 nM'),
  ('Cc1cccc(-c2nccc(Nc3ccnc(Nc4ncc(C(=O)OC[C@H]5CCCN5)s4)n3)n2)n1', '3.98 to 31.6 nM'),
  ('Cc1cccc(-c2nccc(Nc3ccnc(Nc4ccc(C(=O)OCC5CNC5)cn4)n3)n2)n1', '3.98 to 31.6 nM'),
  ('Cc1cccc(-c2nccc(Nc3ccnc(Nc4ccc(C)c(N)c4)n3)n2)n1', '0.0398 to 0.316 nM'),
  ('Cc1cccc(-c2nccc(Nc3ccnc(Nc4nc(CN5CCNCC5)cs4)n3)n2)n1', '0.398 to 3.16 nM'),
  ('Cc1cccc(-c2nccc(Nc3ccnc(Nc4csc(C(=O)O[C@H]5CCN(C)C5)c4)n3)n2)n1', '0.0398 to 0.316 nM'),
  ('Cc1cccc(-c2nc(Nc3ccnc(Nc4ccc(NC(=O)C5CCCNC5)cc4)n3)c3cccn3n2)n1 (stereo not shown)', '0.0398 to 0.316 nM'),
  ('Cc1cccc(-c2nccc(Nc3ccnc(Nc4ccc(NC(=O)C5CNC5)cc4)n3)n2)n1', '0.0398 to 0.316 nM'),
  ('Cc1cccc(-c2nccc(Nc3ccnc(Nc4cc(F)c(NC(=O)C5CCNCC5)c(Cl)c4)n3)n2)n1', '0.0398 to 0.316 nM'),
  ('Cc1cccc(-c2nccc(Nc3ccnc(Nc4cncc(C(=O)OC[C@H]5CCCCN5)c4)n3)n2)n1', '0.398 to 3.16 nM'),
  ('COC(=O)C1CN(Cc2ccc(Nc3nccc(Nc4ccnc(-c5cccc(C)n5)n4)n3)cc2)CCN1C(C)C (stereo not shown)', '0.398 to 3.16 nM'),
  ('Cc1cccc(-c2nccc(Nc3ccnc(Nc4cccc(NC(=O)CC5CNC5)c4)n3)n2)n1', '≤ 0.0316 nM'),
  ('Cc1cccc(-c2nccc(Nc3ccnc(Nc4ccc(N)cc4)n3)n2)n1', '0.398 to 3.16 nM');
